Source listed as ChEMBL document CHEMBL5532693.

# Test system: Calu-3
# assay-notes: Cytotoxicity against human Calu-3 cells assessed as reduction in cell viability at 100 uM incubated for 48 hrs by CellTiter-Glo Luminescent Cell Viability assay
# Type: toxicity, cell-based
# study-conditions: calu-3, 48 h
property-label: Activity

{"entry-smiles": "c1ccc(-c2nc(-c3cccc4ccccc34)n3c2ccc2ccccc23)nc1", "Activity": "Toxic"}
{"entry-smiles": "c1ccc(-c2nc(-c3cc4ccccc4cn3)c3ccc4ccccc4n23)cc1", "Activity": "Non-Toxic"}
{"entry-smiles": "c1ccc(-c2nc(-c3cccs3)c3ccc4ccccc4n23)cc1", "Activity": "Non-Toxic"}
{"entry-smiles": "CN(C)c1ccccc1-c1nc(-c2ccccc2)n2c1ccc1ccccc12", "Activity": "Toxic"}
{"entry-smiles": "c1ccc(-c2ccc(-c3nc(-c4ccccc4)n4c3ccc3ccccc34)nc2)cc1", "Activity": "Non-Toxic"}
{"entry-smiles": "c1ccc(-c2nc(-c3ccccn3)c3ccc4ccccc4n23)cc1", "Activity": "Toxic"}
{"entry-smiles": "c1ccc(-c2nc(-c3ccccc3)n3c2ccc2ccccc23)cc1", "Activity": "Non-Toxic"}
{"entry-smiles": "c1ccc(N(c2ccccc2)c2nc(-c3ccccn3)c3ccc4ccccc4n23)cc1", "Activity": "Non-Toxic"}
{"entry-smiles": "c1ccc(-c2nc(-c3ccccn3)n3c2ccc2ccccc23)nc1", "Activity": "Non-Toxic"}
{"entry-smiles": "c1ccc(-c2nc(-c3ccccn3)n3c2ccc2ccccc23)cc1", "Activity": "Toxic"}

Can you give me Activity for all of these, one by one?
1. c1ccc(-c2nc(-c3ncccn3)c3ccc4ccccc4n23)cc1
2. COc1ccccc1-c1nc(-c2ccccc2)n2c1ccc1ccccc12

Output line:
["Toxic", "Non-Toxic"]

* * *

# Test system: Mycobacterium tuberculosis
# assay-notes: Antibacterial activity against Mycobacterium tuberculosis H37Ra assessed as inhibition of bacterial growth incubated for 7 days by BacTiter-Glo reagent based assay
# Type: functional
# study-conditions: 168 h, time 7 day
property-label: MIC (µM)
Answers are plain numbers, in µM.

Example entries and their recorded answers appear below.
{"entry-smiles": "c1ccc(-c2nc(-c3cc4ccccc4cn3)c3ccc4ccccc4n23)cc1", "property-label": "MIC", "experimental-result": 0.5}
{"entry-smiles": "c1ccc(-c2nc(-c3cccc4ccccc34)n3c2ccc2ccccc23)nc1", "property-label": "MIC", "experimental-result": 1}
{"entry-smiles": "c1ccc(-c2nc(-c3ccccn3)n3c2ccc2ccccc23)nc1", "property-label": "MIC", "experimental-result": 6}

With those in mind, consider the next compound.
Input line: Mycobacterium tuberculosis / MIC / `c1ccc(-c2nc(-c3ccccn3)n3c2ccc2ccccc23)cc1` : value?
Output line: 25
